# measured-target: Transient receptor potential cation channel subfamily V member 1 (Rattus norvegicus)
# Sequence (O35433 whole entry): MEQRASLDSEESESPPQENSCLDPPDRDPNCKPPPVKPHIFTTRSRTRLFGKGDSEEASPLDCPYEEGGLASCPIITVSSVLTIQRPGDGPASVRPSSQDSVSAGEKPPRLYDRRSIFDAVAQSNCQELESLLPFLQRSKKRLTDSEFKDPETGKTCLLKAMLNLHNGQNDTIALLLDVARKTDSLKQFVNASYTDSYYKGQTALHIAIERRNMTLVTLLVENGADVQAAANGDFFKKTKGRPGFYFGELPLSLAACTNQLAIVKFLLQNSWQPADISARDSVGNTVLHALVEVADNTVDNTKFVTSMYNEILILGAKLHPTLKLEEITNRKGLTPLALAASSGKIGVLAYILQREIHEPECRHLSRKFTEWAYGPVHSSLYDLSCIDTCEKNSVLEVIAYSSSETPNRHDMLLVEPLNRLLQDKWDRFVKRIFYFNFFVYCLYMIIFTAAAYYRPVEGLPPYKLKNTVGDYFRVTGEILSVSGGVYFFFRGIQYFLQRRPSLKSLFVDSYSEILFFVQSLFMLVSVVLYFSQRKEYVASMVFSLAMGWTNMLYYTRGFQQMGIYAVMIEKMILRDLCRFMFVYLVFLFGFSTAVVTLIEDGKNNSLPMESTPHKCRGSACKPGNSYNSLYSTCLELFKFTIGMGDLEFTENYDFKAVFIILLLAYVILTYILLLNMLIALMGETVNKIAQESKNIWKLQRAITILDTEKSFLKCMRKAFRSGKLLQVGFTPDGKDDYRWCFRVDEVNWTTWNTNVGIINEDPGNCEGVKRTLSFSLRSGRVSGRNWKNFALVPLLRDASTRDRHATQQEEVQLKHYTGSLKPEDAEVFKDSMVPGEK
# assay-remarks: Antagonist activity at TRPV1 in neonatal rat DRG neurons assessed as inhibition of capsaicin-induced intracellular calcium after 10 mins in presence of 45Ca2+ by Beckman CP scintillation counting method
pIC50: −log10 of the molar value.
readout-type: pIC50

# count of solved cases: 3
> print(dat)
                                   molecule  measurement
1  C[C@@H](NC(=S)CCc1ccc(C(C)(C)C)cc1)c1ccc(NS(C)(=O)=O)cc1         6.52
2  C[C@@H](NC(=O)/C=C/c1ccc(C(C)(C)C)cc1)c1ccc(NS(C)(=O)=O)cc1         6.80
3  CC(Cc1ccc(C(C)(C)C)cc1)C(=O)N[C@H](C)c1ccc(NS(C)(=O)=O)cc1 (mixture of isomers)         6.57

[1] C[C@@H](NC(=O)CCc1ccc(C(C)(C)C)cc1)c1ccc(NS(C)(=O)=O)cc1
[2] C[C@@H](NC(=S)/C=C/c1ccc(C(C)(C)C)cc1)c1ccc(NS(C)(=O)=O)cc1
[3] C[C@@H](NC(=O)NCc1ccc(C(C)(C)C)cc1)c1ccc(NS(C)(=O)=O)cc1
Lookup: Form: Sort by [pIC50] Order [ ascending ] I'd appreciate it if you listed the labels in the requested order.
Found: 2, 3, 1
(2: 5.30, 3: 6.17, 1: 6.62)
